molecular target: carbamylated HSA (cHSA-3) (Homo sapiens, UniProt P02768); assay: ITC titration of peptide into cHSA-3; format: binding; conditions: pH 7.4
Where no end group is shown, it is not given here.
METRIC NAME: pKd
Note on units: pKd is unitless, being -log10 of a concentration expressed in mol/L.

Ask | Quick one: pKd for GSAARTISPSLL [cH2-p1] ?
Reply | 4.00

----------
molecular target: carbamylated HSA (cHSA-2) (Homo sapiens); assay: ITC titration of peptide into cHSA-2; assay type: binding; settings: pH 7.4
Where no end group is shown, it is not given here.
METRIC NAME: pKd
// pKd here means minus log10 of the molar concentration (mol/L)

Ask | May I ask what pKd has been recorded for GSAARTISPSLL [cH2-p1] ?
Reply | 4.01
